Test system: OVCAR-8 ovarian
test summary: NCI-60 one-dose screen, 48 h (100 = growth as untreated, 0 = no growth, -100 = all killed)
assay conditions: 10 µM unless noted
This is part of a sample that, as a whole, favours compounds with a hit. Of some 83,000 tested, about 20% had one in any assay.
hey, just use condition met if measured growth is less than 60%, otherwise condition not met

compound | classification
CC(C)CCc1nc2ccc(NCc3ccc(OCCN4CCC(C)CC4)cc3)cc2[nH]1 | condition not met
COc1cc(C2=Nc3c(N)nc(N)nc3NC(c3cccc(Nc4ccnc5cc(C(F)(F)F)ccc45)c3)C2)cc(OC)c1OC (stereo not drawn) | condition not met
CN1CCN(Cn2nc(-c3cc(Cl)cc(Cl)c3Cl)oc2=S)CC1 | condition not met
CCN1CCN(CCOc2ccc(CNc3ccc4nc(CCC5CCCCC5)[nH]c4c3)cc2)CC1 | condition met
C=CCn1c(SCC(=O)Nc2ccc(C(=O)/C=C/c3ccc(Cl)cc3)cc2)nnc1-c1ccccc1 | condition not met
O=C1NCCS(=O)(=O)/C1=C\C=C\c1cccc(C(F)(F)F)c1 | condition met
CNC(=O)c1cc(Oc2ccc3nc(NC(=O)c4cc(C(F)(F)F)cc(C(F)(F)F)c4)sc3c2)ccn1 | condition met
CCCN1C2CCC1/C(=C\c1ccc(OC)cc1)C(=O)/C2=C/c1ccc(OC)cc1 | condition not met
COc1ccc(S(=O)(=O)N(C)c2oc(-c3ccc(Cl)cc3)nc2C#N)cc1 | condition not met
O=C(OCc1ccc2c(Br)cc(Br)c(O)c2n1)N1CCN(C(=O)c2cc3ccccc3[nH]2)CC1 | condition met
C#C[C@]1(O)CC[C@H]2[C@@H]3CC=C4c5sc(-c6ccccc6)nc5CC[C@]4(C)[C@H]3CC[C@@]21C | condition not met
Cc1ccc(S(=O)(=O)N(CCC(=O)O)c2ccccc2)cc1 | condition not met
CN1CCN(Cc2ccc(NC(=O)c3cncc(C#Cc4cnc(N)c5ccc(C#N)cc45)c3)cc2C(F)(F)F)CC1 | condition met
COc1cc(/C=C2\CN(S(=O)(=O)c3ccc(C)cc3)C/C(=C\c3cc(CN4CCCC4)c(O)c(OC)c3)C2=O)cc(CN2CCCC2)c1O | condition met
C=C(C)[C@@H]1CC[C@]2(COC(=O)c3cccnc3)CC[C@]3(C)[C@H](CC[C@@H]4[C@@]5(C)CCCN(C(=O)c6cccnc6)C(C)(C)[C@@H]5CC[C@]43C)[C@@H]12 | condition met
COc1cccc(C(=O)Nc2cccc(NC(=O)c3ccccn3)c2)c1 | condition not met
COc1cc2c(c(OC)c1OC)CCC(c1cccc(C(=O)Nc3ccccc3Br)c1)O2 (stereo not drawn) | condition not met
